- EXPERIMENTAL SYSTEM: PC-BSA
- Sequence (P02769 25-607 limits assumed, form in doubt): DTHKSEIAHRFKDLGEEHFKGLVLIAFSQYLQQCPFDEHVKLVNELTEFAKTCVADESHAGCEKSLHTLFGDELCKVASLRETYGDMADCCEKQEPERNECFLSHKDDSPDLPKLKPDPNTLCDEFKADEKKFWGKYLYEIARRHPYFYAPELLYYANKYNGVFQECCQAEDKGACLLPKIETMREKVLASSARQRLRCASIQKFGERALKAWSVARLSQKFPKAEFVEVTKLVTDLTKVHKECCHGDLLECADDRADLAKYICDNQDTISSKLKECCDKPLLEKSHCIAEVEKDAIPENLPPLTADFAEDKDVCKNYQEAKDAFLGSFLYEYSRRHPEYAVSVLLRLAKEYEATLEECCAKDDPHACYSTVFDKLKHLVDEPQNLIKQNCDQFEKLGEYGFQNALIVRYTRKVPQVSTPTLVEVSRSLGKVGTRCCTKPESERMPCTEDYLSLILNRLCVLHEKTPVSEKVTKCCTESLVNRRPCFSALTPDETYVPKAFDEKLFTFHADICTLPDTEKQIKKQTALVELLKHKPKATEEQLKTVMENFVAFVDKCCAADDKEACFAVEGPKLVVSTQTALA
- TEST PROTOCOL: ELISA (DELFIA TRF), PC-BSA coated, titrated IgG1
PROPERTY MEASURED: EC50 (nM)
API: value field is a number in nM; no unit string.

// field: EC50; key: PcOxP_DB03_G12 (human IgG1) (antibody, V domains shown) VH: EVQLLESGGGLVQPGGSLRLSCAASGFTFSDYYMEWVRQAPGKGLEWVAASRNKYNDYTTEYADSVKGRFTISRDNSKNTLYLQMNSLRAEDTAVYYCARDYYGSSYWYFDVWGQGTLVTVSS VL: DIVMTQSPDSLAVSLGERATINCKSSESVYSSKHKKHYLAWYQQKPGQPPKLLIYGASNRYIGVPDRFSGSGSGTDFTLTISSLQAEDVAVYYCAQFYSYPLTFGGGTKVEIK ; value = 0.557

Recorded result, PcOxP_DB02_G04 (human IgG1) (antibody, V domains shown) VH: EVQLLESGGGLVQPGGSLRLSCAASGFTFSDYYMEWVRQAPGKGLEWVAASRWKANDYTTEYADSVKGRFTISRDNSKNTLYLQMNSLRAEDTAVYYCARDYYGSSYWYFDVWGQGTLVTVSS VL: DIVMTQSPDSLAVSLGERATINCKASQSVLYSKNKKHYLAWYQQKPGQPPKLLIYGASNRQIGVPDRFSGSGSGTDFTLTISSLQAEDVAVYYCAQFYVYPLTFGGGTKVEIK , EC50: 0.231

Reported EC50 for PcOxP_DB03_C12 (human IgG1) (antibody, V domains shown) VH: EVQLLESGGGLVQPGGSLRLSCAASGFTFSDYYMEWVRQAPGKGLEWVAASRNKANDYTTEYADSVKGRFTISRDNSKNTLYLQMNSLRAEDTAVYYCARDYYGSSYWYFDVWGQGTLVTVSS VL: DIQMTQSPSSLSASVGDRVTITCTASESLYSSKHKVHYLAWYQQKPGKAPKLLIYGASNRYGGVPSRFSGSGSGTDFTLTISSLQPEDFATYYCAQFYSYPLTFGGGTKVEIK was 0.436

For reference, reported EC50 for PcOxP_DB01_B06 (human IgG1) (antibody, V domains shown) VH: EVQLLESGGGLVQPGGSLRLSCAASGFTFSSYYMEWVRQAPGKGLEWVAASRNKYNDYTTEYADSVKGRFTISRDNSKNTLYLQMNSLRAEDTAVYYCARDYYGSSTWYFDVWGQGTLVTVSS VL: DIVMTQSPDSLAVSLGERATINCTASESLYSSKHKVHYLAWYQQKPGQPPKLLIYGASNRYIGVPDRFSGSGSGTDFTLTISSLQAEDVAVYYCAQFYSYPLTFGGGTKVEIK stands at 0.219

Others:
Field EC50 (entry PcOxP_DB01_H02 (human IgG1) (antibody, V domains shown) VH: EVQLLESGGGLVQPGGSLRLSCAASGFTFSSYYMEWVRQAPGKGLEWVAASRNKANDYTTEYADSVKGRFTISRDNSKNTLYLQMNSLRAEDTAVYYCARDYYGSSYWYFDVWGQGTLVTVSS VL: DIVMTQSPDSLAVSLGERATINCTASSSLYSSKHKVHYLAWYQQKPGQPPKLLIYGASNRYIGVPDRFSGSGSGTDFTLTISSLQAEDVAVYYCAQFYSYPLTFGGGTKVEIK ) reads 0.43
